Where these numbers come from: patent US10988455B2

- measured_on: human adenosine A2a receptor (Homo sapiens (Human), UniProt P29274)
- Sequence (P29274 whole entry): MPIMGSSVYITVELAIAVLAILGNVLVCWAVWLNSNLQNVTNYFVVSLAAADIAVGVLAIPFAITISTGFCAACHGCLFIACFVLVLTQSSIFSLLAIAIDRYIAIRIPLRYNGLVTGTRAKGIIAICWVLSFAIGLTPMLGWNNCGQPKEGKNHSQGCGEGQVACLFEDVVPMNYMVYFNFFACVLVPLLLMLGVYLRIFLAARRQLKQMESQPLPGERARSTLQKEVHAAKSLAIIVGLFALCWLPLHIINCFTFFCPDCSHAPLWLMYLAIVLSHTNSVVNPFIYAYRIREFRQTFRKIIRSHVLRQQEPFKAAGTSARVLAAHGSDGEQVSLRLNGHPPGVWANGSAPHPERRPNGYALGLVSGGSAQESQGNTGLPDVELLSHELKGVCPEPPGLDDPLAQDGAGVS
- assay_details: HEK293-hA2a [3H]-ZM241385 binding assay (Test A)
- assay_conditions: HEK293 membranes, 1 nM [3H]ZM241385, 25° C., 1 h
Cut-off 8 on pKi A2a, inclusive. At or above means True; below means False.

Tell me whether pKi A2a is at least 8 here: Nc1nnc(-c2cc(Cl)nc(C(F)F)c2)c(-c2ccccc2)n1
True

Tell me whether pKi A2a is at least 8 here: Nc1nnc(-c2cc(Cl)nc(CF)c2)c(-c2ccccc2)n1
True

Tell me whether pKi A2a is at least 8 here: Cc1cc(-c2nnc(N)nc2-c2ccccc2)cc(C(F)F)n1
True

Tell me whether pKi A2a is at least 8 here: Nc1nnc(-c2cc(Cl)cc(C(F)(F)F)c2)c(-c2ncccn2)n1
False

Tell me whether pKi A2a is at least 8 here: Nc1nnc(-n2ccc(=O)cc2)c(-c2ccccc2)n1
False

Tell me whether pKi A2a is at least 8 here: Cc1cc(-c2nnc(N)nc2-c2ccccc2)cc(C)[n+]1[O-]
False

Tell me whether pKi A2a is at least 8 here: Nc1nnc(Oc2ccccc2)c(-c2ccccc2)n1
False

Tell me whether pKi A2a is at least 8 here: Nc1nnc(-c2ccc3cc[nH]c3c2)c(-c2ccccc2)n1
False

Tell me whether pKi A2a is at least 8 here: CC1(C)C=C(c2nnc(N)nc2-c2ccccc2)CC(C)(C)O1
False

Tell me whether pKi A2a is at least 8 here: Nc1nnc(-c2cc(Cl)cc(Cl)c2)c(-c2ccccn2)n1
False

Tell me whether pKi A2a is at least 8 here: Cn1nc(C(F)(F)F)cc1Oc1nnc(N)nc1-c1ccccc1
False

Tell me whether pKi A2a is at least 8 here: Nc1nnc(-c2ccc(F)c(Cl)c2)c(-c2ccccc2)n1
False

Tell me whether pKi A2a is at least 8 here: Cc1ccc(Sc2nnc(N)nc2-c2ccccc2)cc1
False

Tell me whether pKi A2a is at least 8 here: CN(C)c1cc(-c2nnc(N)nc2-c2ccccc2)ccn1
False

Tell me whether pKi A2a is at least 8 here: Nc1nnc(-c2cnn(Cc3ccccc3)c2)c(-c2ccccc2)n1
False

Tell me whether pKi A2a is at least 8 here: Nc1nnc(-c2ccc3ccccc3c2)c(-c2ccccc2)n1
False
